Assay: Brain penetration of PARP inhibitors in mice
Assay type: in vivo, male C57 mice
Settings: male, C57, mouse, brain and plasma, oral, Brain/Plasma, concentration, 4 h; single p.o. dose: Pamiparib 10, Talazoparib 3, Olaparib 50, Niraparib 50 mg/kg
ASSAY ENDPOINT: Kp at 4 h
Lab note: write the figure by itself, no unit.

Per the record, NC(=O)c1cccc2cn(-c3ccc([C@@H]4CCCNC4)cc3)nc12 has Kp at 4 h of 0.14

====

Assay: PK study in healthy mice
Assay type: in vivo, Mouse
Conditions: mouse, plasma, oral
ASSAY ENDPOINT: bioavailability

C[C@]12CCCN1CC1=NNC(=O)c3cc(F)cc4[nH]c2c1c34 has a reported bioavailability of 99%
